biological target: PARP1 L713F-nLuc biosensor (HCT116); test: PARP1 L713F-nLuc/akaLuc ratio relative to DMSO control (biosensor stabilization) (fold change); higher = more PARP1 biosensor stabilization (target engagement / stabilizer), active = hit call of the paper; conditions: stock concentration (mM; final µM = stock mM x 1): 10; 24 h;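 active = log2 fold change beyond 2 SD from the library mean after excluding viability outliers; inactive = within 2 SD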
Counter-ions that a name gives are not always drawn.
Valid outcomes are listed here; reply with one: class 1 for active, class 0 for inactive

{"columns": ["COMPOUND", "CLASS_NAME"],
 "data": [
  ["N#CC[C@H](C1CCCC1)n1cc(-c2ncnc3[nH]ccc23)cn1 [Ruxolitinib (S enantiomer)]", "class 0"],
  ["CC(=O)c1c(C)cc2cccc(O)c2c1O [Nepodin]", "class 0"],
  ["CC(C)Nc1cc(-c2c[nH]c(C(=O)N[C@H](CO)c3cccc(Cl)c3)c2)c(Cl)cn1", "class 0"]
]}

Challenge: What did this assay record as the result for O=C(c1cncc(Br)c1)N1CCC(N2CCCC2)CC1 ?
Response given: class 0

Challenge: What did this assay record as the result for COc1cc(OC)c(/C=C/S(=O)(=O)Cc2ccc(OC)c(NCC(=O)O)c2)c(OC)c1 ?
Response given: class 0

Challenge: What did this assay record as the result for CS(=O)(=O)c1ccc(Oc2cc(F)cc(C#N)c2)c2c1[C@H](O)C(F)(F)C2 ?
Response given: class 0

Challenge: What did this assay record as the result for CCS(=O)(=O)N1CC(CC#N)(n2cc(-c3ncnc4[nH]ccc34)cn2)C1 [Baricitinib (phosphate)] ?
Response given: class 0

Challenge: What did this assay record as the result for CN1CCN(c2ccc3nc(-c4c(N)c5c(F)cccc5[nH]c4=O)[nH]c3c2)CC1 [Dovitinib (TKI258) Lactate] ?
Response given: class 0

Challenge: What did this assay record as the result for O=c1[nH]c(=O)n([C@H]2C[C@H](O)[C@@H](CO)O2)cc1C(F)(F)F [Trifluridine] ?
Response given: class 0

Challenge: What did this assay record as the result for N#Cc1c[nH]c2ccc(-c3ccc(-c4c(O)cccc4O)cc3)cc12 ?
Response given: class 0

Challenge: What did this assay record as the result for Cc1ccc(C(=O)Nc2cccc(C(F)(F)F)c2)cc1Nc1nc(-c2cccnc2)nc2c1cnn2C ?
Response given: class 0

Challenge: What did this assay record as the result for CC(=O)N(O)CCCCCNC(=O)CCC(=O)N(O)CCCCCNC(=O)CCC(=O)N(O)CCCCCN [Deferoxamine mesylate] ?
Response given: class 0

Challenge: What did this assay record as the result for CNCc1ccc(-c2cc3cc(F)cc(C(N)=O)c3o2)cc1 [Mefuparib (hydrochloride)] ?
Response given: class 1
